- test system: PKN2 (human) (UniProt Q16513)
- Sequence (Q16513 whole entry, looked up): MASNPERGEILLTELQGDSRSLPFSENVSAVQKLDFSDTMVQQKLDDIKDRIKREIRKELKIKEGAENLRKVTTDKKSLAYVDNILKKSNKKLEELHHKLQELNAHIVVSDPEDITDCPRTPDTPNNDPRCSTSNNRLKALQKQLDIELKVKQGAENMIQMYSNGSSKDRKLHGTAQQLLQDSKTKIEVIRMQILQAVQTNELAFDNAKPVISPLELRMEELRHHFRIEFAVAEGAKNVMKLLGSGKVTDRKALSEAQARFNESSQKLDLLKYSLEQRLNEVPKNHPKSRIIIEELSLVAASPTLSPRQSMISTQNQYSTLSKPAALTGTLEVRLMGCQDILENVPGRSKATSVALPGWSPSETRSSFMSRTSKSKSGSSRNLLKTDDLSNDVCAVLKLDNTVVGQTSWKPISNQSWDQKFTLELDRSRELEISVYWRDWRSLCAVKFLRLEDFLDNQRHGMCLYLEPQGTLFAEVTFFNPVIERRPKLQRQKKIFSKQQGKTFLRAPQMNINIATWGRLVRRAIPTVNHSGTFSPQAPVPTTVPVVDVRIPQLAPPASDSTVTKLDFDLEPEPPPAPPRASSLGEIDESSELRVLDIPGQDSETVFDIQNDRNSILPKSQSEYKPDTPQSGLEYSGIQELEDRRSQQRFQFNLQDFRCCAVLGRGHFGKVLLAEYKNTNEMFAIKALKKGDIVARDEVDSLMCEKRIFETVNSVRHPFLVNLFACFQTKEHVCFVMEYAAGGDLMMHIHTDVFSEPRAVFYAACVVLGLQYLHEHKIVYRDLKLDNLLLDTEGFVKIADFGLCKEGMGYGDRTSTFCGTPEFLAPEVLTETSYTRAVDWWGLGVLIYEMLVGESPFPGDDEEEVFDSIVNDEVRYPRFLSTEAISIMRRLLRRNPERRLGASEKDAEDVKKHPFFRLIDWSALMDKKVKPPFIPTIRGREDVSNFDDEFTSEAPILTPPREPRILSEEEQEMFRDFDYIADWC
- test: radiometric filter-binding kinase assay
- measurement conditions: compound 10.0 µM
metric name: residual activity (%)

1. NC(=O)c1cc2c(-c3cccc(-c4ccccc4)c3)cnc(N)c2s1
2. O=C(NOC[C@H](O)CO)c1ccc(F)c(F)c1Nc1ccc(I)cc1Cl
3. N#Cc1c(C2CCNCC2)cc(-c2c(O)cccc2OCC2CC2)nc1N
Exercise: Parameters: sort_field (residual activity), sort_dir (desc). Would you mind listing the labels in the order asked for?
Solution: 2, 3, 1
(2: 83%, 3: 53%, 1: 29%)

P. C=CC(=O)N1CCC[C@@H](n2nc(-c3ccc(Oc4ccccc4)cc3)c3c(N)ncnc32)C1
Q. O=C1Nc2nc(-c3c(O)cccc3OCC3CC3)cc(C3CCCNC3)c2CO1 (configuration not stated)
Exercise: Lab notebook, comparison: P versus Q , higher residual activity goes to which? Pick one and reply with its label.
Solution: P
(P: 90%, Q: 36%)

A. Cc1cc(SCc2sc(-c3ccc(C(F)(F)F)cc3)nc2C)ccc1OCC(=O)O
B. NC(=O)c1ccc(-c2ccc(Oc3cncc4sc(-c5nn[nH]n5)cc34)cc2)cc1
C. Cc1ccc(Sc2cnc(Nc3cccc(Br)n3)s2)cc1C(=O)N1CCN(C(=O)CN)CC1
D. COc1ccc2c(c1)c1c3c(c4c5ccccc5n(C)c4c1n2CC(O)CN(C)C)C(=O)NC3=O (configuration not stated)
Exercise: Ranking field: residual activity; order: falling. Answer format: list of labels, ordered as asked.
Solution: A, B, C, D

Taken from the kinase profiling compilation of Christmann-Franck et al. (2016).
